- target_of_assay: T1, GAL4 activation domain fusion (ACT) to HAB1 (UniProt Q9CAJ0 23-511, limits assumed)
- T1 construct: pACT-HAB1 fusion in yeast reporter strains; also called pACT-HAB1
- T1 sequence (looked up): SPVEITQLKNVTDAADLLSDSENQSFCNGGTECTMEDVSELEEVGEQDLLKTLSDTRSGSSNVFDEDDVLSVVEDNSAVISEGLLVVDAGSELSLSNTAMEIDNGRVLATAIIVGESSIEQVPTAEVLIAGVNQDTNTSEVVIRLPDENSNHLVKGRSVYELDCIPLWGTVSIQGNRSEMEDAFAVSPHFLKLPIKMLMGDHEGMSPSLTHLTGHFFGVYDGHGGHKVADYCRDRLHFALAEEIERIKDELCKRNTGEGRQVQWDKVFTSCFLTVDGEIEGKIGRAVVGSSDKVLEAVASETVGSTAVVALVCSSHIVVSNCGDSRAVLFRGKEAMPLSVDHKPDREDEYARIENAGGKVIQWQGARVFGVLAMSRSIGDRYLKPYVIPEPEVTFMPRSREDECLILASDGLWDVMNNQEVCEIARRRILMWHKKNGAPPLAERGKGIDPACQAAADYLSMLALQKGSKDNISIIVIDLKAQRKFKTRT
- test_details: yeast two-hybrid, X-gal; lowest fludioxonil concentration giving signal
experimental_readout: Threshold

1. PYR1^K59R,L87P (receptor, not shown: small tags and cut ends, pBD-PYR1 fusion in yeast) MPSELTPEERSELKNSIAEFHTYQLDPGSCSSLHAQRIHAPPELVWSIVRRFDKPQTYRHFIKSCSVEQNFEMRVGCTRDVIVISGPPANTSTERLDILDDERRVTGFSIIGGEHRLTNYKSVTTVHRFEKENRIWTVVLESYVVDMPEGNSEDDTRMFADTVVKLNLQKLATVAEAMARNSGDGSGSQVT : 100 µM
2. PYR1^K59R,E94D (receptor, not shown: small tags and cut ends, pBD-PYR1 fusion in yeast) MPSELTPEERSELKNSIAEFHTYQLDPGSCSSLHAQRIHAPPELVWSIVRRFDKPQTYRHFIKSCSVEQNFEMRVGCTRDVIVISGLPANTSTDRLDILDDERRVTGFSIIGGEHRLTNYKSVTTVHRFEKENRIWTVVLESYVVDMPEGNSEDDTRMFADTVVKLNLQKLATVAEAMARNSGDGSGSQVT : 100 µM
3. PYR1^K59R,E94S (receptor, not shown: small tags and cut ends, pBD-PYR1 fusion in yeast) MPSELTPEERSELKNSIAEFHTYQLDPGSCSSLHAQRIHAPPELVWSIVRRFDKPQTYRHFIKSCSVEQNFEMRVGCTRDVIVISGLPANTSTSRLDILDDERRVTGFSIIGGEHRLTNYKSVTTVHRFEKENRIWTVVLESYVVDMPEGNSEDDTRMFADTVVKLNLQKLATVAEAMARNSGDGSGSQVT : 100 µM
4. PYR1^K59R,F159A (receptor, not shown: small tags and cut ends, pBD-PYR1 fusion in yeast) MPSELTPEERSELKNSIAEFHTYQLDPGSCSSLHAQRIHAPPELVWSIVRRFDKPQTYRHFIKSCSVEQNFEMRVGCTRDVIVISGLPANTSTERLDILDDERRVTGFSIIGGEHRLTNYKSVTTVHRFEKENRIWTVVLESYVVDMPEGNSEDDTRMAADTVVKLNLQKLATVAEAMARNSGDGSGSQVT : 100 µM
5. PYR1^K59R,Y120A,N167C (receptor, not shown: small tags and cut ends, pBD-PYR1 fusion in yeast) MPSELTPEERSELKNSIAEFHTYQLDPGSCSSLHAQRIHAPPELVWSIVRRFDKPQTYRHFIKSCSVEQNFEMRVGCTRDVIVISGLPANTSTERLDILDDERRVTGFSIIGGEHRLTNAKSVTTVHRFEKENRIWTVVLESYVVDMPEGNSEDDTRMFADTVVKLCLQKLATVAEAMARNSGDGSGSQVT : 10 µM
6. PYR1^K59R,S92F (receptor, not shown: small tags and cut ends, pBD-PYR1 fusion in yeast) MPSELTPEERSELKNSIAEFHTYQLDPGSCSSLHAQRIHAPPELVWSIVRRFDKPQTYRHFIKSCSVEQNFEMRVGCTRDVIVISGLPANTFTERLDILDDERRVTGFSIIGGEHRLTNYKSVTTVHRFEKENRIWTVVLESYVVDMPEGNSEDDTRMFADTVVKLNLQKLATVAEAMARNSGDGSGSQVT : 100 µM
